Assign IC50 to each entry below.
# Test system: CEM cells HIV-1 protection, formazan growth assay
# run-description: NCI AIDS Antiviral Assay
# stated-conditions: measured here: growth of uninfected CEM cells

For each of the items listed, what is its IC50?
1. CC(=O)NC1Cc2ccccc2C1=O (stereo unspecified)
2. Cc1c(O)nc(CO)[nH]c1=O
3. CCOC(=O)/C(=C\c1cccc(Br)c1)C(C)=O
4. CCCCCC=C(c1cc(Cl)c(OC)c(C(=O)OC)c1)c1cc(Cl)c(OC)c(C(=O)OC)c1
5. O=Nc1c(-c2ccccc2)nc2ncccn12

Response:
> 200 µM
> 200 µM
47.9 µM
28.8 µM
2.14 µM

----------
# Tested on: CEM cells HIV-1 protection, formazan growth assay
# run-description: NCI AIDS Antiviral Assay
# stated-conditions: measured here: growth of uninfected CEM cells
reported-endpoint: IC50

For each of the items listed, what is its IC50?
1. COc1cc2c(cc1O)C1C(O2)c2c(OC)cc3c(c2OC1(C)C)CCC(C)(C)O3 (centres undefined)
2. S=C(NCc1ccccc1-c1ccccc1)Nc1ccc(Br)cn1
3. OC[C@@H]1C(O)[C@H](O)[C@H]2C(O)CCN12 (some centres undefined)
4. CCC12CCCN(Cc3ccccc3)C1c1c(n(C)c3ccccc13)C(CO)C2 (centres undefined)
5. COC(=O)/C=C1\C=CC=CC12C(C(=O)OC)c1ccccc1C(C(=O)OC)C2C(=O)OC (centres undefined)
6. O=C1C(C(O)(C(F)(F)Cl)C(F)(F)Cl)CCCC1C(O)(C(F)(F)Cl)C(F)(F)Cl (centres undefined)
7. N#Cc1n[nH]n(C2CCCCC2)c1=O
8. CCCCCCC(CCl)c1sc(-c2csc(CCNC(=O)OC(C)(C)C)n2)nc1C(=O)OC (centres undefined)

Response:
1: 32.4 µM; 2: 0.38 µM; 3: > 1320 µM; 4: > 25.7 µM; 5: > 200 µM; 6: 10 µM; 7: > 200 µM; 8: > 200 µM

For each of the items listed, what is its IC50?
1. CC(=O)OCC1C(OC(C)=O)CC2CCC1N2C#N (centres undefined)
2. CCSc1n/c(=C\c2ccco2)c2nncn12
3. CC1(C)O[C@@H](CCl)C[C@H](C#N)O1
4. COc1cc2c(cc1OC)C(=O)/C(=C/c1ccc(Cl)cc1)CC2
5. COC(=O)c1cc(C(c2cc(C(=O)OC)c(O)cc2C)C(Cl)(Cl)Cl)c(C)cc1O
6. Cc1ccc2c(c1)nc1n2C(c2c(F)cccc2F)SC1 (centres undefined)

Response:
["> 200 µM", "> 100 µM", "> 200 µM", "> 200 µM", "5.75 µM", "33.1 µM"]

For each of the items listed, what is its IC50?
1. Cc1cc(=N)cc(C)n1O
2. CC1(C)CC(=O)C2=C(C1)Nc1ccccc1NC2c1ccc([N+](=O)[O-])cc1 (centres undefined)
3. COc1ccc(/C(=N/Nc2ccccc2)C(c2ccc(OC)cc2)C2OC(=O)c3ccccc32)cc1 (centres undefined)
4. C[N+]1(C)N=C(c2ccccc2)C=C1[O-]
5. NC(CCC(=O)NC(CSc1ccc([N+](=O)[O-])cc1[N+](=O)[O-])C(=O)NCC(=O)O)C(=O)O (centres undefined)
6. CCSc1n/c(=C\c2ccco2)c2nnnn12
7. CNC(=O)c1n[nH]n(Cc2ccccc2)c1=S
8. CCOC(=O)C1(C)C(=O)CC2c3nc4ccccc4cc3CN2C1=O (centres undefined)

Response:
1. > 1820 µM
2. 29.5 µM
3. > 28.2 µM
4. > 200 µM
5. > 525 µM
6. > 50.1 µM
7. > 200 µM
8. > 10 µM

For each of the items listed, what is its IC50?
1. O=P1(c2ccccc2)Nc2cc(Cl)c(Cl)cc2N1
2. COC(=O)c1cc(=O)n(Cc2ccco2)c(=Nc2ccccc2)s1
3. S=C(NCCc1ccccc1)N1CCC(CCCC2CCN(C(=S)NCCc3ccccc3)CC2)CC1
4. CCOc1ccc(N=NC2C(=O)N(C(=O)CC(=O)Nc3ccccc3)N=C2C)cc1 (centres undefined)

Response:
1: 64.6 µM; 2: 13.8 µM; 3: > 200 µM; 4: 20.4 µM

For each of the items listed, what is its IC50?
1. O=C(CC(C(=O)c1ccoc1)c1ccco1)c1ccco1 (centres undefined)
2. CC(SCCCCCCCCCCSC(C)C(=O)O)C(=O)O (centres undefined)

Response:
151 µM
> 141 µM

For each of the items listed, what is its IC50?
1. Brc1ccc(-c2cc(-c3ccc4c(c3)OCO4)c(-c3cccs3)n2Cc2ccccc2)cc1
2. NC(N)=N/N=C/c1c[nH]c2ccccc12
3. CCN1CCC(O)(/C=C/c2ccc(C)cc2)C(C(=O)/C=C/c2ccc(C)cc2)C1 (centres undefined)
4. Cc1cc(S(=O)(=O)Nc2nc3ncccc3[nH]2)c(S)cc1Cl
5. Cc1ccc(C)n1-c1ccccc1C1C=CN(C(=O)OC(C)(C)C)C=C1
6. CC(O)c1ccc2c(c1)C(O)C[C@H]1[C@](C)(CO)CCC[C@]21C (some centres undefined)
7. O=[N+]([O-])c1ccc(-c2nnc(C34CC5CC(CC(C5)C3)C4)o2)cc1

Response:
> 200 µM
55 µM
2.57 µM
> 200 µM
30.2 µM
141 µM
> 200 µM

For each of the items listed, what is its IC50?
1. S=c1nc2[nH]c3ccccc3c2n[nH]1
2. C=CC(=O)C#Cc1cnc(OC)nc1OC
3. Cc1cc(C)nc(NS(=O)(=O)c2ccc(Nc3c4ccccc4nc4c(C(=O)Nc5ccc(S(=O)(=O)Nc6cc(C)on6)cc5)cccc34)cc2)n1
4. COc1c(C(C)C)cc2c3c1OC(=O)[C@@]31CCCC(C)(C)C1CC2 (some centres undefined)

Response:
1: > 200 µM; 2: 1.1 µM; 3: > 35.5 µM; 4: 30.9 µM

For each of the items listed, what is its IC50?
1. COC(=O)C1C(OC(=O)C(Cl)(c2ccccc2)c2ccccc2)CC2CCC1N2C (centres undefined)
2. O=C(O)c1cccc(S(=O)(=O)c2ccccc2)c1
3. Cc1cn([C@H]2C[C@@H](N(O)C(=O)Nc3ccccc3)[C@@H](CO)O2)c(=O)[nH]c1=O
4. CC(=O)n1nc(-c2[nH]c(C)c(-c3nn(C(C)=O)c(=S)o3)c2C)oc1=S
5. CCOP(=O)(OCC)/C(=C/c1cccs1)CC(C)=O

Response:
1: > 200 µM; 2: > 200 µM; 3: > 200 µM; 4: > 50.1 µM; 5: > 200 µM
